- Test system: HCV genotype 1b (Con1) replicon in HUH-7 cells
- METHOD_NOTES: HCV replicon luciferase reporter assay, genotype 1b
- Type: cell-based
- PROTOCOL_CONDITIONS: Hepatitis C virus, 72 h, genotype 1b replicon, 3 days incubation, read-out: LE_1b (EC50, range)
Record form. Attribute: EC50. Fill in for each entry.

# EC50 of CC[C@@H]1O[C@H](C)CC/C=C\[C@@H]2C[C@@]2(C(=O)NS(=O)(=O)C2(C)CC2)NC(=O)[C@@H]2C[C@@H](Oc3nccc4cc(OC)ccc34)CN2C(=O)[C@H]1NC(=O)OC(C)(C)C(F)(F)F = 0.1 to 0.5 nM

EC50 recorded for this molecule, COc1ccc2c(O[C@@H]3C[C@H]4C(=O)N[C@]5(C(=O)NS(=O)(=O)C6(C)CC6)C[C@H]5/C=C\CC[C@@H](C)O[C@@H](C)[C@H](NC(=O)OC(C)(C)C(C)(F)F)C(=O)N4C3)nc(-c3ccc(OC(C)C)cn3)cc2c1 , is 0.1 to 0.5 nM

Entry under test: CCOc1cnc(O[C@@H]2C[C@H]3C(=O)N[C@]4(C(=O)NS(=O)(=O)C5(C)CC5)C[C@H]4/C=C\CC[C@@H](C)O[C@@H](C)[C@H](NC(=O)OC(C)(C)C(F)(F)F)C(=O)N3C2)c2ccccc12 . Its EC50 was 0.1 to 0.5 nM

The molecule listed as CC[C@@H]1O[C@H](C)CC/C=C\[C@@H]2C[C@@]2(C(=O)NS(=O)(=O)C2(C)CC2)NC(=O)[C@@H]2C[C@@H](Oc3nc4c(c5cc(OC)c(F)cc35)CCCO4)CN2C(=O)[C@H]1NC(=O)OC(C)(C)C(F)(F)F has a reported EC50 of 0.51 to 1 nM

Just so you know, measured EC50 for CC[C@@H]1O[C@H](C)CC/C=C\[C@@H]2C[C@@]2(C(=O)NS(=O)(=O)C2(C)CC2)NC(=O)[C@@H]2C[C@@H](Oc3nc4c(c5cc(OC)ccc35)CCCO4)CN2C(=O)[C@H]1NC(=O)OC(C)(C)C(F)F came out at 0.1 to 0.5 nM

// EC50 lookup, molecule = COc1ccc2c(O[C@@H]3C[C@H]4C(=O)N[C@]5(C(=O)NS(=O)(=O)C6CC6)C[C@H]5/C=C\CO[C@@H](C)C[C@@H](C)[C@H](NC(=O)OC(C)(C)C)C(=O)N4C3)nccc2c1 , result: 5.01 to 35 nM

Please fill in: EC50 reported for CC[C@@H]1O[C@H](C)CC/C=C\[C@@H]2C[C@@]2(C(=O)NS(=O)(=O)C2(C)CC2)NC(=O)[C@@H]2C[C@@H](Oc3ncc(OC)c4ccc(F)cc34)CN2C(=O)[C@H]1NC(=O)OC(C)(C)C(F)(F)F = 0.1 to 0.5 nM

// EC50 value for CC[C@@H]1O[C@H](C)CC/C=C\[C@@H]2C[C@@]2(C(=O)NS(=O)(=O)C2(C)CC2)NC(=O)[C@@H]2C[C@@H](Oc3nccc4c5c(ccc34)OCCO5)CN2C(=O)[C@H]1NC(=O)OC(C)(C)C(F)(F)F : 0.51 to 1 nM

EC50 recorded for this molecule, COc1ccc2c(O[C@@H]3C[C@H]4C(=O)N[C@]5(C(=O)NS(=O)(=O)C6(CF)CC6)C[C@H]5/C=C\CC[C@@H](C)O[C@@H](C)[C@H](NC(=O)OC(C)(C)C(F)(F)F)C(=O)N4C3)nccc2c1 , is 0.51 to 1 nM

Form field EC50, entry CC[C@@H]1O[C@H](C)CC/C=C\[C@@H]2C[C@@]2(C(=O)NS(=O)(=O)C2(C)CC2)NC(=O)[C@@H]2C[C@@H](Oc3cc(OC)nc4cc(OC)ccc34)CN2C(=O)[C@H]1NC(=O)OC(C)(C)C(F)(F)F : 0.1 to 0.5 nM

Record COc1cc(F)cc2c(O[C@@H]3C[C@H]4C(=O)N[C@]5(C(=O)NS(=O)(=O)C6(C)CC6)C[C@H]5/C=C\CC[C@@H](C)O[C@@H](C)[C@H](NC(=O)OC(C)(C)C(C)(F)F)C(=O)N4C3)nccc12 . Reported EC50: 0.1 to 0.5 nM

Input CC[C@@H]1O[C@H](C)CC/C=C\[C@@H]2C[C@@]2(C(=O)NS(=O)(=O)C2CC2)NC(=O)[C@@H]2C[C@@H](Oc3ncc(OC)c4ccccc34)CN2C(=O)[C@H]1NC(=O)OC(C)(C)C(F)(F)F . Output EC50: 0.1 to 0.5 nM

Reported EC50 ( COc1ccc2c(O[C@@H]3C[C@H]4C(=O)N[C@]5(C(=O)NS(=O)(=O)C6(CF)CC6)C[C@H]5/C=C\CC[C@@H](C)O[C@@H](C)[C@H](NC(=O)OC(C)(C)C(C)(F)F)C(=O)N4C3)nccc2c1 ) = 0.51 to 1 nM

Per the records, this molecule ( COc1ccc2c(O[C@@H]3C[C@H]4C(=O)N[C@]5(C(=O)NS(=O)(=O)C6(C)CC6)C[C@H]5/C=C\CC[C@@H](C)O[C@@H](C)[C@H](NC(=O)OC(C)(C)C(F)F)C(=O)N4C3)nc3c(c2c1)CCCO3 ) has EC50 equal to 0.1 to 0.5 nM
